- protocol text: Acute intervention: nutrikinetics of plasma metabolites after ingestion of O. europaea extract (untargeted HPLC-ESI-QTOF-MS)
- condition: human, in vivo, po, 500 mg
Structures can show the parent of a compound that is named as a salt.
measured attribute: Cmax: relative maximum plasma level

>>> result("COc1cc(CCC(=O)O)ccc1OS(=O)(=O)O [dihydroferulic acid 4-sulfate]")
"190 ± 20 relative chromatographic area"
>>> result("C=Cc1ccc(O)c(OC)c1 [p-vinylguaiacol]")
"184 ± 45 relative chromatographic area"
>>> result("COc1cc(C=O)ccc1O[C@@H]1O[C@H](C(=O)O)[C@@H](O)[C@H](O)[C@H]1O [vanillin glucuronide]")
"180 ± 66 relative chromatographic area"
>>> result("COc1cc(CC(=O)O)ccc1OS(=O)(=O)O [homovanillic acid sulfate isomer 1, homovanillic acid sulfate]")
"233 ± 69 relative chromatographic area"
>>> result("COc1cc(CCC(=O)O)ccc1O[C@@H]1O[C@H](C(=O)O)[C@@H](O)[C@H](O)[C@H]1O [dihydroferulic acid 4-O-glucuronide]")
"171 ± 110 relative chromatographic area"
>>> result("O=c1cc(-c2ccc(O)cc2)oc2c([C@@H]3O[C@H](CO)[C@@H](O)[C@H](O)[C@H]3O)c(O)c([C@@H]3O[C@H](CO)[C@@H](O)[C@H](O)[C@H]3O)c(O)c12 [vicenin-2]")
"137 ± 59 relative chromatographic area"

Now for a further compound.
Cmax: relative maximum plasma level in this record for O=C(O)CCCCCCCCC(=O)O [debacic acid isomer 3, sebacic acid] : 330 ± 109 relative chromatographic area

====

- protocol text: Acute intervention: nutrikinetics of plasma metabolites after ingestion of L. citriodora extract (untargeted HPLC-ESI-QTOF-MS)
- condition: 1 h after L. citriodora extract
Param label: returns 1 (yes) when mean chromatographic area in plasma, T1 < 100, returns 0 (no) otherwise, including exact equality.

Is 100 strictly greater than the molecule's reported mean chromatographic area in plasma, T1? molecule: CC1=CC(=O)CC(C)(C)C1(O)/C=C/C(C)=C/COC1OC(CO)C(O)C(O)C1O (single isomer, unassigned; isomer 3) [abscisic alcohol 11-glucoside isomer 3, abscisic alcohol 11-glucoside]
0 (no)

Is 100 strictly greater than the molecule's reported mean chromatographic area in plasma, T1? molecule: CC(O)/C=C\C/C=C\C/C=C\CCCCCCCC(=O)O (stereo not shown) [17-hydroxylinolenic acid]
0 (no)

Is 100 strictly greater than the molecule's reported mean chromatographic area in plasma, T1? molecule: CC(C)=C1CC2(C)C(=CC1=O)CCC(OC1OC(CO)C(O)C(O)C1O)C2C (stereo not shown) [isopetasoside]
0 (no)

Is 100 strictly greater than the molecule's reported mean chromatographic area in plasma, T1? molecule: COc1cc(C=CC(=O)O)ccc1OS(=O)(=O)O [ferulic acid 4-sulfate]
0 (no)

Is 100 strictly greater than the molecule's reported mean chromatographic area in plasma, T1? molecule: COc1cc(CCCO)ccc1OC1OC(CO)C(O)C(O)C1O (single isomer, unassigned; isomer 2) [dihydroconiferin isomer 2, dihydroconiferin]
0 (no)

Is 100 strictly greater than the molecule's reported mean chromatographic area in plasma, T1? molecule: Cc1cccc(O)c1O [3-methylcatechol]
1 (yes)

====

- protocol text: Acute intervention: nutrikinetics of plasma metabolites after ingestion of L. citriodora extract (untargeted HPLC-ESI-QTOF-MS)
- condition: human plasma, 500 mg capsule of L. citriodora (LC) extract, oral, mean ± SD
measured attribute: AUC: area under the zero-moment curve

>>> result("COc1cc(CCCO)ccc1OC1OC(CO)C(O)C(O)C1O (single isomer, unassigned; isomer 1) [dihydroconiferin isomer 1, dihydroconiferin]")
"126 ± 28 relative chromatographic area/h"

Now for a further molecule.
AUC: area under the zero-moment curve in this record for CC1=CC(=O)CC(C)(C)C1(O)/C=C/C(C)=C/COC1OC(CO)C(O)C(O)C1O (single isomer, unassigned; isomer 3) [abscisic alcohol 11-glucoside isomer 3, abscisic alcohol 11-glucoside] : 267 ± 94 relative chromatographic area/h

====

- protocol text: Acute intervention: nutrikinetics of plasma metabolites after ingestion of O. europaea extract (untargeted HPLC-ESI-QTOF-MS)
- condition: in vivo
Structures can show the parent of a compound that is named as a salt.
This section presents compounds with their documented mean chromatographic area in plasma, T1 values.
Give only the figure.

Solved cases (4 shown):
>>> number("COc1cc(C=O)ccc1O[C@@H]1O[C@H](C(=O)O)[C@@H](O)[C@H](O)[C@H]1O [vanillin glucuronide]")
180
>>> number("C=Cc1ccc(O)c(OC)c1")
184
>>> number("COc1cc(CCC(=O)O)ccc1O[C@@H]1O[C@H](C(=O)O)[C@@H](O)[C@H](O)[C@H]1O [dihydroferulic acid 4-O-glucuronide]")
114
>>> number("COc1cc(CC(=O)O)ccc1OS(=O)(=O)O [homovanillic acid sulfate isomer 1, homovanillic acid sulfate]")
212

mean chromatographic area in plasma, T1 in this record for O=C(O)CCCCCCCCC(=O)O [debacic acid isomer 3, sebacic acid] : 0

mean chromatographic area in plasma, T1 in this record for O=c1cc(-c2ccc(O)cc2)oc2c([C@@H]3O[C@H](CO)[C@@H](O)[C@H](O)[C@H]3O)c(O)c([C@@H]3O[C@H](CO)[C@@H](O)[C@H](O)[C@H]3O)c(O)c12 : 137

====

This section presents compounds with their documented observed Tmax: time required to reach Cmax values.
- protocol text: Acute intervention: nutrikinetics of plasma metabolites after ingestion of L. citriodora extract (untargeted HPLC-ESI-QTOF-MS)
- condition: human plasma, 500 mg capsule of L. citriodora (LC) extract, oral, mean ± SD
Where a name gives a salt, the structure may show the parent alone.
Give a bare numeral; the unit h is implied.

Solved cases (5 shown):
>>> number("Cc1cccc(O)c1O [3-methylcatechol]")
8
>>> number("COc1cc(CCO)ccc1OS(=O)(=O)O [homovanillyl alcohol sulfate]")
7
>>> number("CC1=CC(=O)CC(C)(C)C1(O)/C=C/C(C)=C/COC1OC(CO)C(O)C(O)C1O (single isomer, unassigned; isomer 3) [abscisic alcohol 11-glucoside isomer 3, abscisic alcohol 11-glucoside]")
1
>>> number("COc1cc(CCCO)ccc1OC1OC(CO)C(O)C(O)C1O (single isomer, unassigned; isomer 2) [dihydroconiferin isomer 2, dihydroconiferin]")
1
>>> number("COc1cc(C(=O)O)ccc1OS(=O)(=O)O [vanillic acid 4-O-sulfate isomer 1, vanillic acid 4-O-sulfate]")
8

observed Tmax: time required to reach Cmax in this record for C=C(C)[C@@H]1[C@H]2OC(=O)[C@@H]1[C@]1(O)C[C@H]3O[C@]34C(=O)O[C@H]2[C@]14C [picrotoxinin] : 1.3

observed Tmax: time required to reach Cmax in this record for COc1cc(C(=O)O)ccc1OS(=O)(=O)O [vanillic acid 4-O-sulfate isomer 2, vanillic acid 4-O-sulfate] : 1.2

observed Tmax: time required to reach Cmax in this record for COc1cc(C=CC(=O)O)ccc1OS(=O)(=O)O [ferulic acid 4-sulfate] : 3

observed Tmax: time required to reach Cmax in this record for CC1=CC(=O)CC(C)(C)C1(O)/C=C/C(C)=C/COC1OC(CO)C(O)C(O)C1O (single isomer, unassigned; isomer 1) [abscisic alcohol 11-glucoside isomer 1, abscisic alcohol 11-glucoside] : 1.2

observed Tmax: time required to reach Cmax in this record for COc1cc(/C=C/C(=O)O)ccc1O[C@@H]1O[C@H](C(=O)O)[C@@H](O)[C@H](O)[C@H]1O [ferulic acid 4-O-glucuronide] : 5

observed Tmax: time required to reach Cmax in this record for CC1=CC(=O)CC(C)(C)C1(O)/C=C/C(C)=C/COC1OC(CO)C(O)C(O)C1O (single isomer, unassigned; isomer 2) [abscisic alcohol 11-glucoside isomer 2, abscisic alcohol 11-glucoside] : 2

observed Tmax: time required to reach Cmax in this record for COc1cc(CCCO)ccc1OC1OC(CO)C(O)C(O)C1O (single isomer, unassigned; isomer 1) [dihydroconiferin isomer 1, dihydroconiferin] : 0.9

observed Tmax: time required to reach Cmax in this record for CC(C)=C1CC2(C)C(=CC1=O)CCC(OC1OC(CO)C(O)C(O)C1O)C2C (centres unmarked) [isopetasoside] : 2

observed Tmax: time required to reach Cmax in this record for CC(O)/C=C\C/C=C\C/C=C\CCCCCCCC(=O)O (centres unmarked) [17-hydroxylinolenic acid] : 6

====

- protocol text: Acute intervention: nutrikinetics of plasma metabolites after ingestion of L. citriodora extract (untargeted HPLC-ESI-QTOF-MS)
- condition: in vivo
Counter-ions that a name gives are not always drawn.
This section presents compounds with their documented mean chromatographic area in plasma, T1 values.
Give only the figure.

Solved cases (4 shown):
>>> number("COc1cc(CC(=O)O)ccc1OS(=O)(=O)O [homovanillic acid sulfate isomer 1, homovanillic acid sulfate]")
0
>>> number("O=C(O)CCCCCCCCC(=O)O [sebacic acid isomer, sebacic acid]")
102
>>> number("O=C(O)CCCCCCCCC(=O)O [sebacic acid Isomer 2, sebacic acid]")
86
>>> number("O=C(O)C=Cc1ccc(OS(=O)(=O)O)c(O)c1 (single isomer, unassigned; isomer 1) [caffeic acid 4-sulfate isomer 1, caffeic acid 4-sulfate]")
89

Now for a further compound.
mean chromatographic area in plasma, T1 in this record for O=C(O)C=Cc1ccc(OS(=O)(=O)O)c(O)c1 (single isomer, unassigned; isomer 2) [caffeic acid 4-sulfate isomer 2, caffeic acid 4-sulfate] : 67
